Target: T1, TIAR (TIAR-b, short isoform) (UniProt Q01085 1-375)
T1 sequence: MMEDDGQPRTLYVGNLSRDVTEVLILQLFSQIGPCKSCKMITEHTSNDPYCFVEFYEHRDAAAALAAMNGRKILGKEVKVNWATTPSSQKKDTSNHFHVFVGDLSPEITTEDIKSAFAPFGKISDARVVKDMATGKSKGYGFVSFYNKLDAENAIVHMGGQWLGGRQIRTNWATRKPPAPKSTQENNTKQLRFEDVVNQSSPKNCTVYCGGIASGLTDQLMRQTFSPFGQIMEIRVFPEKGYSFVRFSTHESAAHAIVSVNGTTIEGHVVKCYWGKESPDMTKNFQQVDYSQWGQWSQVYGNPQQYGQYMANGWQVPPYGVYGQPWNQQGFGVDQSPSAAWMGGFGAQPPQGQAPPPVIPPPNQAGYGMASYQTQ
Test: UV crosslinking
measured.parameter: binding result

INSERT INTO results (binder, result) VALUES
  ('TAAAAATAAATATGTACTACGGAATATCTCGAAAAAC (ssDNA) [VEGF-AS4]', 'no binding'),
  ('TTTTTTTTTTTTTTT (ssDNA) [oligo(dT)15]', 'binds'),
  ('TTAATATCTAAAATAAAATAAATT (ssDNA) [IL8-AS1]', 'no binding'),
  ('AAAATGCTTTTTTTTTTTTA (ssDNA) [VEGF-AS1b]', 'binds');
